Data origin: PubChem BioAssay AID624263

- procedureText: A Quantitative High throughput Screen to Identify Chemical Modulators of PINK1 Expression; also: nearly all actives have a fitted effect of over 65% in size
- cond: PINK1 immunofluorescence, high-content cytometry, 24 h; series mostly up to 76.6 µM
Among all 410,000 compounds or so, about 820 (0.2%) were called active. About 2% were inconclusive and are not listed. The sample as a whole holds a higher share of actives than the screen did.
observationType: outcome

Solved cases below.
{"molecule": "c1ccc(N2CC[C@@]3(CCCNC3)C2)nc1", "testResult": "inactive"}
{"molecule": "CCc1nc2ccccc2c(=O)n1-c1cccc(OC)c1", "testResult": "inactive"}
{"molecule": "COc1cccc(-c2ccc(O)c(CNC3CN4CCC3CC4)c2)n1 (stereo not given)", "testResult": "inactive"}
{"molecule": "N#Cc1c(Cl)c(Cl)c(Cl)c(C#N)c1Cl", "testResult": "inactive"}

Asked: Which outcome value is on record for COc1cc([C@@H]2c3cc4c(cc3[C@H](OC(C)=O)[C@H]3COC(=O)[C@H]23)OCO4)cc(OC)c1OC ?
Given back: inactive
